- protocol-summary: Hepatocyte stability assay (mouse)
- Assay type: in vitro ADME
- measurement-setup: mouse, cryopreserved hepatocytes, 10 μM compound, 60 min, read-out: T½

{"molecule": "C=C(CC(=O)OC1(c2ccc(C(F)(F)F)cc2)CC2(CC2)C1)C(=O)O", "half-life at 10 μM": "1.72 h"}
{"molecule": "C=C(CC(=O)OC1(c2ccc(Br)cn2)CCC1)C(=O)O", "half-life at 10 μM": "7 h"}
{"molecule": "C=C(CC(=O)OC1(c2ccc(C(F)(F)F)cn2)CC1)C(=O)O", "half-life at 10 μM": "5.45 h"}
{"molecule": "C=C(CC(=O)OC1(c2ccc(C(F)(F)F)cc2)CC2(CCC2)C1)C(=O)O", "half-life at 10 μM": "0.5 h"}
{"molecule": "C=C(CC(=O)OC1(c2ncc(C(F)(F)F)cn2)CCC1)C(=O)O", "half-life at 10 μM": "5.12 h"}
{"molecule": "C=C(CC(=O)OC1(c2ccc(C(F)(F)F)nn2)CCC1)C(=O)O", "half-life at 10 μM": "7.23 h"}
{"molecule": "C=C(CC(=O)OC1(c2ccc(Br)cc2)COC1)C(=O)O", "half-life at 10 μM": "2.1 h"}
{"molecule": "C=C(CC(=O)O[C@H](c1ccc(C(F)(F)F)cc1)C(F)(F)F)C(=O)O", "half-life at 10 μM": "0.433 h"}
{"molecule": "C=C(CC(=O)OC1(c2ccc(C(F)(F)F)cc2)CCCC1)C(=O)O", "half-life at 10 μM": "1.97 h"}
{"molecule": "C=C(CC(=O)OC1(c2ccc(C(F)(F)F)cn2)CCC1)C(=O)O", "half-life at 10 μM": "> 7.67 h"}
{"molecule": "C=C(CC(=O)OC1(c2ccc(C(F)(F)F)cc2)CC(C)C1)C(=O)O (single isomer, unassigned)", "half-life at 10 μM": "2.33 h"}
{"molecule": "C=C(CC(=O)OC1(c2ccc(C(F)(F)F)nc2)CCC1)C(=O)O", "half-life at 10 μM": "8.87 h"}
{"molecule": "C=C(C(=O)O)C(C)(C)C(=O)OC1(c2ccc(C(F)(F)F)cc2)CCC1", "half-life at 10 μM": "0.25 h"}
{"molecule": "C/C(=C\\C(=O)OC1(c2ccc(C(F)(F)F)cc2)CCC1)C(=O)O", "half-life at 10 μM": "0.45 h"}
{"molecule": "C=C(CC(=O)OC1(c2ccc(C(F)(F)F)cc2)CSC1)C(=O)O", "half-life at 10 μM": "1.48 h"}
{"molecule": "C=C(CC(=O)OC1(c2ccc(C(F)(F)F)c(F)c2)CCC1)C(=O)O", "half-life at 10 μM": "3.53 h"}
{"molecule": "C=C(CC(=O)OC1(c2ccc(C#CC(F)(F)F)cc2)CCC1)C(=O)O", "half-life at 10 μM": "< 0.05 h"}
{"molecule": "C=C(CC(=O)OC1(c2ccc(C(F)(F)C(F)(F)F)cc2)CCC1)C(=O)O", "half-life at 10 μM": "0.7 h"}

* * *

- Test system: hepatocytes
- protocol-summary: Hepatocyte stability assay (human)
- Format: in vitro ADME
- measurement-setup: 10 μM compound, 60 min
recorded-endpoint: Clint (μL min^−1 10^−6 cells)

{"smiles-record": "C=C(CC(=O)OC1(c2ccc(C(F)(F)F)s2)CCC1)C(=O)O", "system": "hepatocytes", "relation-operator": "=", "readout-number": 17}
{"smiles-record": "C=C(CC(=O)OC(C)(C)c1ccc(C(F)(F)F)cn1)C(=O)O", "system": "hepatocytes", "relation-operator": "<", "readout-number": 3}
{"smiles-record": "C=C(CC(=O)OC1(c2ccc(C(F)(F)F)cn2)COC1)C(=O)O", "system": "hepatocytes", "relation-operator": "<", "readout-number": 3}
{"smiles-record": "C=C(CC(=O)OC1(c2ccc(Br)cc2)CCC1)C(=O)O", "system": "hepatocytes", "relation-operator": "=", "readout-number": 15}
{"smiles-record": "C=C(CC(=O)OC1(c2ccc(C(F)(F)C(F)(F)F)cc2)CCC1)C(=O)O", "system": "hepatocytes", "relation-operator": "=", "readout-number": 11}
{"smiles-record": "C=C(CC(=O)OCc1ccc(C(F)(F)F)cc1)C(=O)O", "system": "hepatocytes", "relation-operator": "<", "readout-number": 3}
{"smiles-record": "C=C(CC(=O)OC1(c2ccc(C(C)(F)F)cc2)CCC1)C(=O)O", "system": "hepatocytes", "relation-operator": "=", "readout-number": 4}
{"smiles-record": "C=C(CC(=O)OC1(c2ccc(C(F)(F)F)c(Cl)c2)CCC1)C(=O)O", "system": "hepatocytes", "relation-operator": "=", "readout-number": 46}
{"smiles-record": "C=C(CC(=O)OC1(c2ccc(Br)cn2)CCC1)C(=O)O", "system": "hepatocytes", "relation-operator": "<", "readout-number": 3}

The origin of these recorded values is patent US20230399287A1.
